- Test system: MDA-N
- assay.overview: NCI tumour cell line growth inhibition, 48 h
Activity calls are given as the source filed them. Rule as the data show it: active = GI50 up to about 1.1 µM and inactive = higher.
Possible outcomes: 1 = active, 0 = inactive

INSERT INTO assay_data (compound, label_value) VALUES
  ('O=C1C(=Cc2cccc(Cl)c2)N=C(c2ccccc2)N1n1c(-c2ccccc2)nc2ccccc2c1=O', 0),
  ('CC(=O)C1C(=O)C(=O)N(c2ccc([N+](=O)[O-])cc2Cl)C1=O (stereo not given)', 0),
  ('O=C(O)c1ccccc1/C=N\N(CCO)C1=NCCN1', 0),
  ('CNc1ncnc(Sc2nc(N)nc3[nH]cnc23)c1[N+](=O)[O-]', 1),
  ('CC1(C)/C(=N\O)C2(OS(=O)(=O)C(F)(F)F)CCC1C2 (stereo not given)', 0),
  ('O=c1c2sc(=S)n(-c3ccc(F)cc3)c2ncn1/N=C/c1ccc(F)cc1F', 0),
  ('CCC(=O)Nc1ccc(NCC(=O)Nc2ccc(OC)cc2)cc1', 0),
  ('c1csc(-c2nn3c(C45CC6CC(CC(C6)C4)C5)nnc3s2)c1', 0),
  ('CCCCOCCOCCOC1=C(Cl)C(=O)c2c(O)ccc(O)c2C1=O', 1),
  ('COC(=O)C1=CO[C@@H](OC2OC(CO)C(O)C(O)C2O)[C@H]2[C@@H](C)[C@@H](O)[C@@H](O)[C@@H]12 (stereo not given in full)', 0);
